The entries below are paired with their reported growth inhibition.
experiment: NCI Yeast Anticancer Drug Screen. Data for the mlh1 rad18 strain (AID 175); details: S. cerevisiae mlh1 rad18 strain growth inhibition; at 50.0 µM; hits give high values
Compounds without any hit were thinned out: in the full panel of roughly 79,000, 15% have a hit.
Enter your answer as a number in %; do not include the unit.

Recorded growth inhibition, per entry:
# compound, number
records = [
    ("O=C1CSCc2sccc21", 2.95),
    ("Cc1cc(O)c2c(c1)C(=O)C=CC2=O", -25.9),
    ("CC(=O)OCC(NC(=O)C(N)CC(=O)O)C(=O)NCC(=O)Oc1ccc([N+](=O)[O-])cc1 (configuration not stated)", 5.75),
    ("C/[N+]([O-])=N/COC1OC(COC2OCC(O)C(O)C2O)C(O)C(O)C1O (configuration not stated)", 3.7),
]

Give the measured growth inhibition of Cc1cccc[n+]1CCC(N)=O .
-6.25

Give the measured growth inhibition of Cc1nn(-c2ccc([N+](=O)[O-])cc2)c2c1C(C)(C)C(C#N)=C(N)O2 .
6.95

Give the measured growth inhibition of Cc1ccc(S(=O)(=O)NC(Cc2ccccc2)C(=O)NCc2cccnc2)cc1 (configuration not stated) .
4.65

Give the measured growth inhibition of O=C(CCCn1cnc([N+](=O)[O-])n1)NCCCn1ccnc1[N+](=O)[O-] .
-7.8

Give the measured growth inhibition of O=C1CS[C@@H]2C(=O)CCCC2C1 (some centres not stated) .
-4.4

Give the measured growth inhibition of CN(C)CCC(=O)Cc1ccccc1 .
0.95

Give the measured growth inhibition of Cc1ccc(S(=O)(=O)N(C)c2c(N)n(C)c(=O)n(C)c2=O)cc1 .
-4.4

Give the measured growth inhibition of Cc1ccc(S(=O)(=O)O)c2c([N+](=O)[O-])cccc12 .
-22.6

----------
test: NCI Yeast Anticancer Drug Screen. Data for the sgs1 mgt1 strain (AID 161);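 further: 0% = growth of cultures given vehicle only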; conditions: S. cerevisiae sgs1 mgt1 strain, at 50.0 µM, hits give high values
The panel holds about 79,000 compounds, 15% with a hit somewhere; the sample as a whole holds those more often.
The entries below are paired with their reported growth inhibition.
Enter your answer as a number in %; do not include the unit.

# compound, unit-string, growth inhibition
data = [
    ("O=C(Nc1ccc(Cl)cc1)Nc1nnc(-c2ccc(-c3nnc(NC(=O)Nc4ccc(Cl)cc4)o3)cc2)o1", "%", 26.4),
    ("O=C1Nc2noc(=O)nc2NO1", "%", -0.35),
    ("O=c1[nH]c(=O)n(COCc2ccccc2)c2ccccc12", "%", 65.2),
    ("[Cl][Tb]([Cl])[Cl]", "%", 31.8),
    ("Cc1ccc(C2=NO[C@@H]3C(=O)N(c4ccc(Cc5ccc(N6C(=O)[C@H]7C(c8ccc(C)cc8)=NO[C@H]7C6=O)cc5)cc4)C(=O)[C@H]23)cc1", "%", 29.1),
    ("Cc1c(C(=O)O)c(-c2ccc([N+](=O)[O-])cc2)c(C=O)n1-c1ccccc1", "%", 3.3),
]

Okay, next one:
Give the measured growth inhibition of CC(=O)/C=C(\c1ccccc1)c1c(O)c2ccccc2oc1=O .
4.45

----------
Test: NCI Yeast Anticancer Drug Screen. Data for the sgs1 mgt1 strain (AID 161);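 further: 0% = growth of cultures given vehicle only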
Conditions: S. cerevisiae sgs1 mgt1 strain, at 50.0 µM, hits give high values
Method: Growth inhibition of yeast strains with defined genetic alterations is measured as a screen for potential anti-cancer activity. Selected strains with alterations in DNA damage repair or cell cycle control were exposed to compounds and growth inhibition was measured relative to vehicle treated controls. The strain used in this assay is sgs1 mgt1
Compounds without any hit were thinned out: in the full panel of roughly 79,000, 15% have a hit.
assay-readout: growth inhibition (%)
Enter your answer as a number in %; do not include the unit.

Recorded growth inhibition, per entry:
# molecule, unit-string, number
rows = [
    ("O=C(O)CCc1ccc2c(c1)OCO2", "%", -5.85),
    ("C=C1CCC2[C@@H](CCC3[C@]2(C)CCC[C@]3(C)C(=O)OC)[C@@H]1CC=O (stereo partly specified)", "%", 9.25),
]

Give the measured growth inhibition of C/C=C/[C@@H]1[C@H]2C(=O)[C@]3(Cl)[C@@H](/C=C/C)[C@@H]3C(=O)[C@@]12Cl .
6.45

Give the measured growth inhibition of COC(=O)Nn1c(C)c(C(=O)Nc2ccc(OC)cc2)c(C(=O)OC)c1C .
14.3

Give the measured growth inhibition of COc1cc(C(C)O)c[n+](CCC2CNc3ccccc32)c1 (stereo unspecified) .
5.8

Give the measured growth inhibition of CCCC(=O)c1ccc2c(ccc(=O)n2C)c1 .
-5.2
